Values compiled from ChEMBL document CHEMBL5052846.

biological target: Kinesin-like protein KIF18A (Homo sapiens, UniProt Q8NI77); test: Inhibition of recombinant His-tagged human KIF18A (1 to 467 residues) expressed in baculovirus expression system assessed as inhibition of microtubule-stimulated ATPase activity preincubated for 15 mins followed by ATP addition and further incubated for 15 mins and measured after 40 mins by ADP-Glo reagent based assay
Sequence (Q8NI77 whole entry, the tested form may be a part): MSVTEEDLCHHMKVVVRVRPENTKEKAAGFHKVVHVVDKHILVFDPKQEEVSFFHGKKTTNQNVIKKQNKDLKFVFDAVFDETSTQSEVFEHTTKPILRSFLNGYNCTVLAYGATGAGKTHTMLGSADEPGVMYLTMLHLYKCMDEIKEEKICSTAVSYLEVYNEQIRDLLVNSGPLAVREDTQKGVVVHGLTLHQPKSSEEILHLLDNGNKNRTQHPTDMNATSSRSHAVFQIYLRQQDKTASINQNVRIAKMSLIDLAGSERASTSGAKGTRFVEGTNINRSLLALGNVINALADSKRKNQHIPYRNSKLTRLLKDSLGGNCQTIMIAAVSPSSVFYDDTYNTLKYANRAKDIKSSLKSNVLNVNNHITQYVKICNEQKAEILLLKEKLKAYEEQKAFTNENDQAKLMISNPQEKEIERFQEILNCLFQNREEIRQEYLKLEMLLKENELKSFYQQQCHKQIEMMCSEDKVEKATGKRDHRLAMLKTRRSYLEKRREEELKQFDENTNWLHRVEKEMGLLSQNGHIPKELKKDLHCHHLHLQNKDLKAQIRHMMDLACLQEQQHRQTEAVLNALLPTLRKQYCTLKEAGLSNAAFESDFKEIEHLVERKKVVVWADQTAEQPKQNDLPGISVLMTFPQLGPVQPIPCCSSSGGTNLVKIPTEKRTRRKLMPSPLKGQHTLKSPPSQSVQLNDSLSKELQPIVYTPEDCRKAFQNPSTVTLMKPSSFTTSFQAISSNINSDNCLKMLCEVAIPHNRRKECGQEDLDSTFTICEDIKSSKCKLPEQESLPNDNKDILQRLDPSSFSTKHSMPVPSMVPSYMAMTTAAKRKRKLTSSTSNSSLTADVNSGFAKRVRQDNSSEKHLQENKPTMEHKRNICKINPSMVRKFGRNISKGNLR
experimental readout: IC50
Report the figure along with its unit, number first.

Q. Dear colleague, please send me the reported IC50 for CC(C)(C)NS(=O)(=O)c1cccc(NC(=O)c2ccc(N3CC[C@@H](O)C3)nc2N2CCC3(CC2)CC3)c1 when you can.
A. 189 nM
